Test system: Plasmodium falciparum
procedure_summary: ST_JUDE: Plasmodium falciparum 3D7 EC50 (uM) as measured by SYBR green dye
Format: functional, organism-based
Please go through the items and note down their EC50.
Write the value in nM as a bare number.

Query: What is its EC50 for Plasmodium falciparum? Entry: Cc1ccc(C2CC(C(F)(F)F)n3nc(C(=O)N4CCN(C(c5ccccc5)c5ccccc5)CC4)cc3N2)cc1 (configuration not stated)
Result: 668

Query: What is its EC50 for Plasmodium falciparum? Entry: COc1ccccc1CNC(=O)C1c2ccccc2C(=O)N(CC(C)C)C1c1cccs1 (configuration not stated)
Result: 3160

Query: What is its EC50 for Plasmodium falciparum? Entry: O=C(NC(NC(=S)Nc1ccc(Cl)cc1)C(Cl)(Cl)Cl)c1ccccc1F (configuration not stated)
Result: 2730

Query: What is its EC50 for Plasmodium falciparum? Entry: Oc1ccc(Br)cc1CN1CCN(Cc2ccccc2F)CC1
Result: 719

Query: What is its EC50 for Plasmodium falciparum? Entry: CCOC(=O)c1oc2c(c1C)-c1nn(Cc3ccc(C)cc3)cc1CC2
Result: 3140

Query: What is its EC50 for Plasmodium falciparum? Entry: COc1cc(NC(=O)N2CCn3cccc3C2c2ccc(F)cc2)cc(OC)c1OC (configuration not stated)
Result: 4150

Query: What is its EC50 for Plasmodium falciparum? Entry: CCc1ccccc1NC(=O)C1c2ccccc2C(=O)N(C2CCCC2)C1c1cccs1 (configuration not stated)
Result: 1730

Query: What is its EC50 for Plasmodium falciparum? Entry: CCCN(C(=O)C(=O)Nc1ccc2nc3n(c(=O)c2c1)CCCCC3)c1ccc(OCC)cc1
Result: 673

Query: What is its EC50 for Plasmodium falciparum? Entry: OC(CN1CCN(C/C=C/c2ccccc2)CC1)Cn1c2ccccc2c2ccccc21 (configuration not stated)
Result: 1400

Query: What is its EC50 for Plasmodium falciparum? Entry: CCOc1ccc(-c2nonc2NC(=O)CC(C)C)cc1OCC
Result: 3140

Query: What is its EC50 for Plasmodium falciparum? Entry: COc1ccc(C2Sc3ccccc3N=C3C2=C(O)c2ccccc23)cc1 (configuration not stated)
Result: 1740

Query: What is its EC50 for Plasmodium falciparum? Entry: CCCCCOc1ccc(N(C(C)=O)C2=C(N3CCOCC3)C(=O)c3ccccc3C2=O)cc1
Result: 327

Query: What is its EC50 for Plasmodium falciparum? Entry: CO/C(O)=C1\C(C)=NC2=C(C(=O)CC(c3ccc(OC)c(OC)c3)C2)C1c1ccc(F)cc1 (configuration not stated)
Result: 122

Query: What is its EC50 for Plasmodium falciparum? Entry: CCN(CCN(C)C)C(=O)c1csc(-c2ccc(OC(F)(F)F)cc2)n1
Result: 4510

Query: What is its EC50 for Plasmodium falciparum? Entry: CCN(CC)CCNC(=O)c1ccc(Cn2c(SCc3cccc(C)c3)nc3ccncc32)cc1
Result: 6750

Query: What is its EC50 for Plasmodium falciparum? Entry: COc1ccc(CCNC(=S)Nc2ccccc2Cl)cc1OC
Result: 1290

Query: What is its EC50 for Plasmodium falciparum? Entry: CCOc1ccc(/C=C/c2nc(=O)c3ccccc3o2)cc1
Result: 188

Query: What is its EC50 for Plasmodium falciparum? Entry: COc1ccc(CN2CCN(Cc3ccccc3)CC2)c(O)c1
Result: 1090

Query: What is its EC50 for Plasmodium falciparum? Entry: Cc1c(C)n(CC(O)CNC2CCCCC2C)c2ccccc12 (configuration not stated)
Result: 527

Query: What is its EC50 for Plasmodium falciparum? Entry: Cc1ccccc1NC(=O)C1c2ccccc2C(=O)N(C2CCCC2)C1c1cccs1 (configuration not stated)
Result: 2820

Query: What is its EC50 for Plasmodium falciparum? Entry: C=CCN1C=CC=C/C1=C\c1sc2ccccc2[n+]1C
Result: 1990

Query: What is its EC50 for Plasmodium falciparum? Entry: Cc1ccc(CN2c3ccccc3C(O)=C(/C=N/c3ccc4c(c3)N3CCN=C3S4)S2(=O)=O)cc1
Result: 2180

Query: What is its EC50 for Plasmodium falciparum? Entry: O=C1C2CC=C(Cl)CC2C(=O)N1CCCCO (configuration not stated)
Result: 3320

Query: What is its EC50 for Plasmodium falciparum? Entry: O=C(Nc1ccc(-c2nc3cc(NC(=O)c4ccc(Br)o4)ccc3[nH]2)cc1)c1ccc(Br)o1
Result: 2590

Query: What is its EC50 for Plasmodium falciparum? Entry: CC(C)(C)CC(C)(C)NCC(O)COc1ccc2c(c1)CCC2 (configuration not stated)
Result: 4420

Query: What is its EC50 for Plasmodium falciparum? Entry: COc1ccccc1Cn1ccnc1SCC(=O)Nc1cc(C(F)(F)F)ccc1Cl
Result: 119

Query: What is its EC50 for Plasmodium falciparum? Entry: Cc1ccc(S(=O)(=O)Nc2cc(Sc3nc[nH]n3)c(O)c3ccccc23)c(C)c1
Result: 3670

The origin of these recorded values is ChEMBL document CHEMBL1154198.
